- target system: human recombinant MK2 (h) (Homo sapiens, UniProt P49137)
- Construct: purchased Millipore (IC50 Profiler Express service)
- Sequence (P49137 whole entry): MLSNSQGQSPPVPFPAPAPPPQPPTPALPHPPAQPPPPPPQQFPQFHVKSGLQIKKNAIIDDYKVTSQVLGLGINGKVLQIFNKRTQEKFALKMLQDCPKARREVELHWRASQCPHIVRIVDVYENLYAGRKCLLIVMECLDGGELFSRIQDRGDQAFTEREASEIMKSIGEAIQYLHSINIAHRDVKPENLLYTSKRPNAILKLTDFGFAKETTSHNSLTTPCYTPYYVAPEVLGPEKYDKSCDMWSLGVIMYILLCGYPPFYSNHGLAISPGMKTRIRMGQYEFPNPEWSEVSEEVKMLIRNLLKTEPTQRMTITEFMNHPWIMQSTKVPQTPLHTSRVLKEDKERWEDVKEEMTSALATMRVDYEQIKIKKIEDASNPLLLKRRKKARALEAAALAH
- protocol text: Radiometric IC50 Determination
- Type: biochemical
- experimental setup: 10-point curve; ATP within 15 μM of apparent Km
No end group written: not given here.
readout label: IC50 (µM)
Give your result in µM as a bare value.

In plain terms, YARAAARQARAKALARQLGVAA [MMI-0100] has a documented IC50 of 22

###

Each entry below carries its recorded % activity.
- target system: PKCβI(h) (Homo sapiens, UniProt P05771)
- Sequence (P05771 whole entry): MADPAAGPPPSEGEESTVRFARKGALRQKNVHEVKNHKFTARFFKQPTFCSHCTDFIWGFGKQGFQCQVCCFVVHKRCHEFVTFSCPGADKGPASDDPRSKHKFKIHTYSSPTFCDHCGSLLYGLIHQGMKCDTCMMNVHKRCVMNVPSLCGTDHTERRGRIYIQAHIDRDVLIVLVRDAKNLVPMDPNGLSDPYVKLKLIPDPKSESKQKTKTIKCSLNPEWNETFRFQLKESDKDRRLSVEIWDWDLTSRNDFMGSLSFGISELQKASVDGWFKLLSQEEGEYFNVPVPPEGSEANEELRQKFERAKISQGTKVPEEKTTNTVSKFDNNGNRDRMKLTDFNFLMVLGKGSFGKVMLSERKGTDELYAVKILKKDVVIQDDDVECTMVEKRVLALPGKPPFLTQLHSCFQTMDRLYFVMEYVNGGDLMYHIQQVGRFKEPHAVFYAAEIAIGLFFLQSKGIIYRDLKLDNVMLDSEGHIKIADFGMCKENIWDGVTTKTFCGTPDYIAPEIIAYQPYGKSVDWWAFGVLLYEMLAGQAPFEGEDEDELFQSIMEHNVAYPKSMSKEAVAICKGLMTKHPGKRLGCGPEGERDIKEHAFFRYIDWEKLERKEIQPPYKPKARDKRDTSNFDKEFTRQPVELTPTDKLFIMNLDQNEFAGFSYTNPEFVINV
- protocol text: Kinase Profiling Assay
- Assay type: biochemical
- experimental setup: peptide 100 μM
The answer is to be given in %; state only the numeric part.

// known answers, use as guide
                           primary_sequence  reported
0          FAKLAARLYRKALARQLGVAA [MMI-0300]        78
1  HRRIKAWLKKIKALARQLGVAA (Mammal) [MMI-0500]         1
2        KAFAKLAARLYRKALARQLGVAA [MMI-0400]        78

For the next question, use this sequence.
Just so you know, measured % activity for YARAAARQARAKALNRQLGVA (Mammal) [MMI-0200] came out at 98
